Experimental System: Man(a1-3)[Man(a1-6)]Man(b1-4)GlcNAc(b1-4)GlcNAc
Protocol Notes: glycan array binding signal (z-score within array); higher = stronger binding
Test Settings: glycan notation: IUPAC condensed, linker removed
Many of the other results were omitted from the sample, so the strongest signals are more common in it than they were.

| Binder | glycan array binding signal (z-score) |
| --- | --- |
| AidA (Burkholderia cenocepacia) (protein) MSRVTDVLVSFDTETILKKYPNPSKNPAAPTLIDWRYVYMVTNQDNVISGQAGGELDLKAQVGDLIRWRETSLSLGFENQVVFYKFIGNVGNDLISTPTPRVAEASIPVPNTSKPEVPTCQKVANYYWSSECLKVGRVTYHFQFQIIDRNCQSQGCFSWDPFISIHN | -0.131 |
| SrpA (Streptococcus sanguis) (protein) SSKSESTVNSQSASSETNRSSTNNGSTSSSSETARVRKRRATDTTPPTITVPSDIIAYRGEEFEFYFEITDDSGQVKNIELSTFGKPLGLNWLEYSEDNFNVPGNATSDNPLRVRVHGTVPLNEPIPADKNRAQFTRTIRAWDAAGNVSSNITFVIKYRAQTDKYNPADPTITYVDRLSSLSPSEKNAVEAAVRAANPQIPAAARITVSANGTVTITYPDSSTDTITANRVVKDLASSRSALT | -0.474 |
| RBMC1 (Vibrio cholerae) (protein) QQSQRVVTADNLMYLRSGFAIDAIGTTVNNLVGGPVQGTNGGVLRAPIALDQLQSVEVTSGLYNWGGYHIVAIKFTMKDGSSVLLGSTHYASNKKVETYTVPQGKRIKQINVWTGGWLVEGFQFVY | 1.13 |

Sourced from the supplement of paper PMC8728848
